The measured values listed here are drawn from patent US20230295293A1.

# SUBJECT_OF_TEST: T1, human FRα (Homo sapiens, UniProt P15328)
# T1 construct: CD33 leader (signal peptide) (N, cleaved yes); made in house; host or cells: in-house suspension-adapted CHO cell line
# TEST_NAME: Biacore T200 surface plasmon resonance affinity
# Assay type: binding
# RECORDED_CONDITIONS: SPR 25° C.
REPORTED_PROPERTY: kd (s⁻¹)
Answers are plain numbers, in s⁻¹.

Req: Please look up its kd: AB1370095: anti-FRα fully human IgG1 antibody; VH SEQ ID NO: 45, VL SEQ ID NO: 46 (antibody, V domains shown) VH: EVQLVESGGGLVKPGGSLRLSCAASGFTFSSYSMNWVRQAPGKGLEWVSSISSRSSYVYYADSVKGRFTISRDNAKNSLYLQMNSLRAEDTAVYYCARGMTTLTFDYWGQGTLVTVSS VL: DIQMTQSPSSLSASVGDRVTITCRASQGISSFLAWFQQKPGKAPKSLIYAASSLQSGVPSKFSGSGSGTDFTLTISSLQPEDFATYYCQQYNSYPLTFGGGTKVEIK
Resp: 0.00129
